The reported measurements were obtained from the supplement of paper PMC5998384.

Test system: HeLa Kyoto
method-summary: melting temperature (median over replicates), in situ; higher = more thermally stable
assay-setup: cell cycle stage: G1/S
recorded-endpoint: melting temperature (°C)
Give the quantity in °C, number only.

In the examples that follow, each entry is paired with its recorded melting temperature.
substance	experimental-system	melting temperature [°C]
MASIWVGHRGTVRDYPDFSPSVDAEAIQKAIRGIGTDEKMLISILTERSNAQRQLIVKEYQAAYGKELKDDLKGDLSGHFEHLMVALVTPPAVFDAKQLKKSMKGAGTNEDALIEILTTRTSRQMKDISQAYYTVYKKSLGDDISSETSGDFRKALLTLADGRRDESLKVDEHLAKQDAQILYKAGENRWGTDEDKFTEILCLRSFPQLKLTFDEYRNISQKDIVDSIKGELSGHFEDLLLAIVNCVRNTPAFLAERLHRALKGIGTDEFTLNRIMVSRSEIDLLDIRTEFKKHYGYSLYSAIKSDTSGDYEITLLKICGGDD [ANXA3]	HeLa Kyoto	52.3
MARGQQKIQSQQKNAKKQAGQKKKQGHDQKAAAKAALIYTCTVCRTQMPDPKTFKQHFESKHPKTPLPPELADVQA [ZNF706]	HeLa Kyoto	57.5
MFGPAKGRHFGVHPAPGFPGGVSQQAAGTKAGPAGAWPVGSRTDTMWRLRCKAKDGTHVLQGLSSRTRVRELQGQIAAITGIAPGGQRILVGYPPECLDLSNGDTILEDLPIQSGDMLIIEEDQTRPRSSPAFTKRGASSYVRETLPVLTRTVVPADNSCLFTSVYYVVEGGVLNPACAPEMRRLIAQIVASDPDFYSEAILGKTNQEYCDWIKRDDTWGGAIEISILSKFYQCEICVVDTQTVRIDRFGEDAGYTKRVLLIYDGIHYDPLQRNFPDPDTPPLTIFSSNDDIVLVQALELADEARRRRQFTDVNRFTLRCMVCQKGLTGQAEAREHAKETGHTNFGEV [YOD1]	HeLa Kyoto	50.2

### Prompt Sample HNRNPK — what was its melting temperature?
### Response 49.7

###

Test system: HeLa Kyoto
method-summary: solubility change mitosis vs G1/S (difference of NP-40 vs SDS log2 ratios) (log2 ratio difference); higher = more soluble in mitosis
solubility change mitosis (log2) for assorted sequences
Reply briefly: the number, and no unit.

In the examples that follow, each entry is paired with its recorded solubility change mitosis (log2).
item-sequence	solubility change mitosis (log2)
MAEAVLRVARRQLSQRGGSGAPILLRQMFEPVSCTFTYLLGDRESREAVLIDPVLETAPRDAQLIKELGLRLLYAVNTHCHADHITGSGLLRSLLPGCQSVISRLSGAQADLHIEDGDSIRFGRFALETRASPGHTPGCVTFVLNDHSMAFTGDALLIRGCGRTDFQQGCAKTLYHSVHEKIFTLPGDCLIYPAHDYHGFTVSTVEEERTLNPRLTLSCEEFVKIMGNLNLPKPQQIDFAVPANMRCGVQTPTA [ETHE1]	-0.0383
MAPRRVRSFLRGLPALLLLLLFLGPWPAASHGGKYSREKNQPKPSPKRESGEEFRMEKLNQLWEKAQRLHLPPVRLAELHADLKIQERDELAWKKLKLDGLDEDGEKEARLIRNLNVILAKYGLDGKKDARQVTSNSLSGTQEDGLDDPRLEKLWHKAKTSGKFSGEELDKLWREFLHHKEKVHEYNVLLETLSRTEEIHENVISPSDLSDIKGSVLHSRHTELKEKLRSINQGLDRLRRVSHQGYSTEAEFEEPRVIDLWDLAQSANLTDKELEAFREELKHFEAKIEKHNHYQKQLEIAHEKLRHAESVGDGERVSRSREKHALLEGRTKELGYTVKKHLQDLSGRISRARHNEL [LRPAP1]	-0.0876

### Prompt Sample MVLLHVKRGDESQFLLQAPGSTELEELTVQVARVYNGRLKVQRLCSEMEELAEHGIFLPPNMQGLTDDQIEELKLKDEWGEKCVPSGGAVFKKDDIGRRNGQAPNEKMKQVLKKTIEEAKAIISKKQVEAGVCVTMEMVKDALDQLRGAVMIVYPMGLPPYDPIRMEFENKEDLSGTQAGLNVIKEAEAQLWWAAKELRRTKKLSDYVGKNEKTKIIAKIQQRGQGAPAREPIISSEEQKQLMLYYHRRQEELKRLEENDDDAYLNSPWADNTALKRHFHGVKDIKWRPR [C21ORF59] — what was its solubility change mitosis (log2)?
### Response 0.0264
